tested on: Plasmodium falciparum; experiment: GSK_TCMDC: Inhibition of Plasmodium falciparum 3D7 in whole red blood cells, using parasite LDH activity as an index of growth. Test compounds present at 2uM; type: functional
Property label: Inhibition (%)
Numbers only, in %.

>>> reading("CC(Cc1ccc(CNC(=O)c2ccc(CC(C)NCCc3cccc(Cl)c3)cc2)cc1)NCCc1cccc(Cl)c1 (stereo not given)")
99

Each compound below has a reported value. Please supply its Inhibition.
1. O=C(NC1CCN(Cc2ccccc2)CC1)c1csc2nc(-c3ccc(Cl)cc3)cn12
2. COc1ccccc1-c1csc(C(=O)NCC2CCN(Cc3ccc(C(C)(C)C)cc3)C2)c1.O=C(O)C(F)(F)F (stereo not given)
3. c1ccc(-c2ccc(-c3nc4ccccc4[nH]3)cc2)cc1
4. O=C1OC(c2ccccc2)(c2ccccc2)CN1C1CCN(Cc2ccc(O)c(Cl)c2)C1 (stereo not given)
5. Cc1ccccc1NC(=O)C1CSCN1C(=O)OCc1ccccc1 (stereo not given)
6. Oc1ccc2[nH]c(-c3ccc(F)cc3F)nc2c1CN1CCC(O)(c2ccccc2)CC1

Output:
1: 98; 2: 93; 3: 93; 4: 100; 5: 91; 6: 96

Record Inhibition for all entries; do not skip any.
1. CC(C)N(C(=O)CSc1nc2cc(Cl)ccc2c(=O)n1Cc1ccccc1)C(C)C
2. COc1cccc(NC(=O)c2ccc(NCCCN3CCC(C)CC3)c([N+](=O)[O-])c2)c1
3. CCOc1ccc(C(=O)Nc2cc(Cl)ccc2O)cc1Cl

Output:
100
100
83

Cited source: ChEMBL document CHEMBL1157539
